B1: Transcription factor SOX-4, residues 60 to 127; numbered along this chain, Q06945 (parent)
chain: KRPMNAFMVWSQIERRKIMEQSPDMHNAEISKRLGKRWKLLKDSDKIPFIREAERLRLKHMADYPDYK

Variants of: B1
Assay: abundance fitness (aPCA) (normalised: wild type 0, dead -1); higher = more abundant; growth selection in yeast, the domain comes from the species named
Settings: Homo sapiens
Binned abundance fitness; ranges: category 1 = under -0.2, category 2 = from -0.2 up to -0.05, category 3 = -0.05 and over

>  <CHANGES>
D63W

>  <QUALITATIVE LABEL>
category 2

$$$$
>  <CHANGES>
E54H

>  <QUALITATIVE LABEL>
category 1

$$$$
>  <CHANGES>
M25E

>  <QUALITATIVE LABEL>
category 1

$$$$
>  <CHANGES>
D66K

>  <QUALITATIVE LABEL>
category 2

$$$$
>  <CHANGES>
L41K

>  <QUALITATIVE LABEL>
category 1

$$$$
>  <CHANGES>
R37D

>  <QUALITATIVE LABEL>
category 3

$$$$
>  <CHANGES>
I30C

>  <QUALITATIVE LABEL>
category 1

$$$$
>  <CHANGES>
Y64G

>  <QUALITATIVE LABEL>
category 3

$$$$

Quick check: band for `G35S`
category 3

Quick check: band for `Y64E`
category 3

Quick check: band for `H26P`
category 3

Quick check: band for `K46C`
category 1

Quick check: band for `L40Y`
category 1

Quick check: band for `A28R`
category 2

Quick check: band for `I30V`
category 3

Quick check: band for `I30E`
category 1

Quick check: band for `K32E`
category 3
